# assay.system: T1, hen egg white lysozyme (Gallus gallus (hen egg white), UniProt P00698)
# T1 construct: hen egg white lysozyme (HEWL), 14.5 kDa, monomeric; The source is named for ITC (Roche powder); also called HEWL; source: bought: Roche (HEWL lysozyme powder, > 95%)
# T1 sequence (P00698 19-147): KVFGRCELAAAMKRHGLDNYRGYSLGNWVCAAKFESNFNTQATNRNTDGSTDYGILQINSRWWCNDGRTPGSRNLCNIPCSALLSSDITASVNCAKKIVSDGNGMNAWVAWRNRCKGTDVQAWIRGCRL
# protocol.description: ITC; Malvern PEAQ-ITC; 20 °C; PBS pH 7.4 with 0.005% tween 20; lysozyme in the cell and nanobody titrated (so in the source); nanobody 20 or 30 µM, lysozyme 200 or 300 µM; single site model
# study.conditions: both partners purified
attribute.measured: pKd
Lab note: report pKd as minus log10 of the concentration in molar units, number only.

Some binders with known pKd results, for comparison:
binder: Cab-Lys3 nanobody (VHH, crystal structure PDB 1XFP named for it (Muyldermans and Lauwereys 1999); CDR3 of 24 residues with an extra disulphide between CDR1 and CDR3; also called WT Cab-Lys3; source: E. coli T7-Express, purified (IMAC, Superdex-75)) VHH: DVQLQASGGGSVQAGGSLRLSCAASGYTIGPYCMGWFRQAPGKEREGVAAINMGGGITYYADSVKGRFTISQDNAKNTVYLLMNSLEPEDTAIYYCAADSTIYASYYECGHGLSTGGYGYDSWGQGTQVTVSS
pKd: 7.57
//
binder: H04 H106A nanobody (VHH, as the chain of m2 (H04) with H106A in CDR3; source: E. coli T7-Express, purified (IMAC, Superdex-75)) VHH: EVQLLESGGGLVQPGGSLRLSCAASGFRFDAEDMGWVRQAPGKGLEWVSSIYGPSGSTYYADSVKGRFTISRDNSKNTLYLQMNSLRAEDTAVYYCAKYTSPPQNAGFDYWGQGTLVTVSS
pKd: 6.53

I am curious: what pKd value has been reported for Phage-F07 nanobody (VHH, selected by phage display from the NaLi-H1 synthetic library (Hybrigenics); also called P-F07; source: E. coli T7-Express, purified (IMAC, Superdex-75)) VHH: EVQLQASGGGFVQPGGSLRLSCAASGTSSDLYDMGWFRQAPGKEREFVSAISGDDTQYTYYADSVKGRFTISRDNSKNTVYLQMNSLRAEDTATYYCAPRAHEPHGHWNYYWGQGTQVTVSS ?
6.16
